Tested on: proliferating neural precursor cells in the hippocampus (subgranular layer of the dentate gyrus)
assay_details: standard in vivo hippocampal neurogenesis assay (BrdU labelling, week-long intracranial mini-pump infusion)
Parameters: species or system mouse (C57/B6)
protocol_conditions: 10 μM concentration, seven days of infusion at 0.5 μL/hour, daily IP BrdU; four 12 week old adult male C57/B6 mice; vehicle 14.5
property: (×10^−06) BrdU+ cells/mm^3 dentate gyrus

Solved entries (count: 3):
- compound: "COc1cccc(N(CC(O)Cn2c3ccc(Br)cc3c3cc(Br)ccc32)S(=O)(=O)c2ccccc2C(F)(F)F)c1 (stereo not drawn) [P7C3-S253]"
  (×10^−06) BrdU+ cells/mm^3 dentate gyrus: "28.5 (×10^−06) BrdU+ cells/mm^3"
- compound: "COc1cccc(N(CC(O)Cn2c3ccc(Br)cc3c3cc(Br)ccc32)S(C)(=O)=O)c1 (stereo not drawn) [P7C3-S251]"
  (×10^−06) BrdU+ cells/mm^3 dentate gyrus: "17.7 (×10^−06) BrdU+ cells/mm^3"
- compound: "O=C(O)CCc1c[nH]c2ccccc12 [P7C3-S242, 3-indolepropionic acid, reference compound]"
  (×10^−06) BrdU+ cells/mm^3 dentate gyrus: "21.5 (×10^−06) BrdU+ cells/mm^3"

Please state, for each entry, its recorded (×10^−06) BrdU+ cells/mm^3 dentate gyrus.
1. O=C(NCC(O)Cn1c2ccc(Br)cc2c2cc(Br)ccc21)Nc1ccccc1 (stereo not drawn) [P7C3-S277]
2. O=C(Cn1c2ccc(Br)cc2c2cc(Br)ccc21)NO [P7C3-S231]
3. CC(C)NCC(O)CN1c2ccccc2CCc2ccccc21 (stereo not drawn) [P7C3-S144]
4. OC(COc1ccccc1)CN1c2ccccc2CCc2ccccc21 (stereo not drawn) [P7C3-S135]

20.3 (×10^−06) BrdU+ cells/mm^3
26.1 (×10^−06) BrdU+ cells/mm^3
18.1 (×10^−06) BrdU+ cells/mm^3
14.2 (×10^−06) BrdU+ cells/mm^3

Please state, for each entry, its recorded (×10^−06) BrdU+ cells/mm^3 dentate gyrus.
1. CN1C(=O)CN=C(c2ccc(Cl)cc2)c2cc(Cl)ccc21 [P7C3-S203, 4′-chlorodiazepam, reference compound]
2. CC(C)(O)Cn1c2ccc(Br)cc2c2cc(Br)ccc21 [P7C3-S169]
3. NCC(O)CN1c2ccccc2CCc2ccccc21 (stereo not drawn) [P7C3-S140]
4. OCCn1c2ccc(Br)cc2c2cc(Br)ccc21 [P7C3-S171, 2-(3,6-dibromo-9H-carbazol-9-yl)ethanol]
5. COc1ccc2[nH]c(C#N)c(N)c2c1 [P7C3-S276]
6. COc1cccc(NCC(O)CN2c3ccccc3CCc3ccccc32)c1 (stereo not drawn) [P7C3-S158]
7. OC(CSc1ccccc1)CN1c2ccccc2CCc2ccccc21 (stereo not drawn) [P7C3-S134]
8. N[C@@H](Cc1c[nH]c2ccc(O)cc12)C(=O)O [P7C3-S249, L-5-hydroxy-tryptophan, reference compound]

1. 21.5 (×10^−06) BrdU+ cells/mm^3
2. 18.4 (×10^−06) BrdU+ cells/mm^3
3. 23.4 (×10^−06) BrdU+ cells/mm^3
4. 26.2 (×10^−06) BrdU+ cells/mm^3
5. 29.3 (×10^−06) BrdU+ cells/mm^3
6. 25 (×10^−06) BrdU+ cells/mm^3
7. 19.4 (×10^−06) BrdU+ cells/mm^3
8. 34.8 (×10^−06) BrdU+ cells/mm^3

Please state, for each entry, its recorded (×10^−06) BrdU+ cells/mm^3 dentate gyrus.
1. COc1cccc(N(CC(F)Cn2c3ccc(Br)cc3c3cc(Br)ccc32)S(C)(=O)=O)c1 (stereo not drawn) [P7C3-S256]
2. CS(=O)(=O)NC(=O)Cn1c2ccc(Br)cc2c2cc(Br)ccc21 [P7C3-S232]
3. CNCC(F)CN1c2ccccc2CCc2ccccc21 (stereo not drawn) [P7C3-S152]

1. 31.5 (×10^−06) BrdU+ cells/mm^3
2. 16.8 (×10^−06) BrdU+ cells/mm^3
3. 26.8 (×10^−06) BrdU+ cells/mm^3

Cited source: patent US9701676B2
